Biological target: JNK1 (Homo sapiens, UniProt P45983)
Sequence (P45983 whole entry): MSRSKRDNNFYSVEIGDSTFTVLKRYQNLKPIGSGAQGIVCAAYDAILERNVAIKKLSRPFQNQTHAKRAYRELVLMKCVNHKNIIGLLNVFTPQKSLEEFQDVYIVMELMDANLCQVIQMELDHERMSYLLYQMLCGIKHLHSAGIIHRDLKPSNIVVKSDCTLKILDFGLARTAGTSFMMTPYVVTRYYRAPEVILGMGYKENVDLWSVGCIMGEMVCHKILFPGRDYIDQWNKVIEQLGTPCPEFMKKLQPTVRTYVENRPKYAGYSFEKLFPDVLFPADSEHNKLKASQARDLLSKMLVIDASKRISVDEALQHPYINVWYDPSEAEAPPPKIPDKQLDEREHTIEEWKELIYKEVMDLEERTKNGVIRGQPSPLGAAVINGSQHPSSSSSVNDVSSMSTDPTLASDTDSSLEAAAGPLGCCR
Assay: DELFIA assay, displacement of biotinylated pepJIP1 from GST-JNK1
Measured Parameter: IC50 (µM)
Numbers only, in µM.

### Prompt Name the recorded IC50 of the compound listed here: Cc1sc(NC(=O)Cc2cccc3ccccc23)c(C(N)=O)c1C [Compound 1]
### Response 15.8

---

Target: JNK1 (Homo sapiens, UniProt P45984)
Sequence (P45984 whole entry): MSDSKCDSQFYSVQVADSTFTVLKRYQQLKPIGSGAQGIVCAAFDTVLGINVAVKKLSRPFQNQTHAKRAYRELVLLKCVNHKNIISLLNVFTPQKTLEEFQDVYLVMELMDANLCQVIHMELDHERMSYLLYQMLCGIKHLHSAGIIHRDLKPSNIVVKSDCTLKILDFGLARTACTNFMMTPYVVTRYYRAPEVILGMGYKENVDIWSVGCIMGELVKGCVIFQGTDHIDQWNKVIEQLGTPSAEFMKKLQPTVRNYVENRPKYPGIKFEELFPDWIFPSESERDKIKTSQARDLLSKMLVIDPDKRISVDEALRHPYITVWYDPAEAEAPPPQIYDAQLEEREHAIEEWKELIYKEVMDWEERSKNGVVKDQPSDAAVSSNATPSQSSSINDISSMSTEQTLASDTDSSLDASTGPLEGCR
Assay: biochemical
Format: binding
Settings: ITC, in presence of ATP (saturating non-hydrolizable ATP)
Measured Parameter: Kd (nM)
Numbers only, in nM.

### Prompt Please look at `NC(=O)c1ccsc1NC(=O)Cc1csc2ccccc12` and tell me its recorded Kd on JNK1 (Homo sapiens, UniProt P45984).
### Response 1100
